Test system: mouse splenocytes
ASSAY_EXPLANATION: Inhibition of B Cell Activation as Measured by CD69 Expression in Mouse Splenocytes
Format: cell-based
CONDITION_CONTEXT: Splenocyte; C57/BL6 splenocytes, 3 ug/mL goat anti-mouse IgM, 18-20 hrs, CD69+ve cells within CD19; read-out: Mouse spleenocyte IC50
MEASURED_QUANTITY: IC50 (nM)

# MOLECULE_SMILES, IC50 (nM)
rows = [
    ("CC(C)N1CCN(Cc2ccc(-c3cc4c(-c5cccc(N6CCOc7cc(C8CC8)ccc7C6=O)c5CO)ccnc4[nH]3)nc2)CC1", 21),
]

P = N#CCN1CC(n2cc(-c3cc4c(-c5cccc(N6CCOc7cc(C8CC8)ccc7C6=O)c5CO)ccnc4[nH]3)cn2)C1
Q = CN(C)C(=O)N1CC=C(c2cc3c(-c4cccc(N5CCOc6cc(C7CC7)cc(F)c6C5=O)c4CO)ccnc3[nH]2)CC1
stdin: Given P and Q , report the one with the higher recorded IC50. Please identify the chosen entry by its label.
stdout: P
(P: 126 nM, Q: 5.8 nM)
